Source listed as patent US12059420B2.

assayTarget: human IDO1 (Homo sapiens, UniProt P14902)
Sequence (P14902 whole entry): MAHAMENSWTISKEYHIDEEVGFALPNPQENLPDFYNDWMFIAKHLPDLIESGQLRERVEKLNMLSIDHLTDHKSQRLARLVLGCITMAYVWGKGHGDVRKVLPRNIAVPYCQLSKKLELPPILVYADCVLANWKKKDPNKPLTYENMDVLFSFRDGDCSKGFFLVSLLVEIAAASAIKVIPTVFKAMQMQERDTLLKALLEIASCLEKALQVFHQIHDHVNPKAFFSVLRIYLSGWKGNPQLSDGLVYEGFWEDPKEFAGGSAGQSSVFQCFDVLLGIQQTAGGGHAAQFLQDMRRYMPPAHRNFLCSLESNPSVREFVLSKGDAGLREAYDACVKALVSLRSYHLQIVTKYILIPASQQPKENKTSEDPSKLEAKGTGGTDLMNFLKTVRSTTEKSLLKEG
assayDetails: IDO inhibition assay in HEK293 cells stably expressing human IDO1 (kynurenine production, Ehrlich reagent, absorbance 490 nm)
testSettings: 20 hours incubation with compound, 500 nM reference standard = 100% inhibition, read-out: IDO1 HEK Human IC50
Experimental: HEK293 cells were transfected with a pCDNA-based mammalian expression vector harboring human IDO1 cDNA (NM 002164.2) by electroporation. They were cultured in medium (DMEM with 10% FBS) containing 1 mg/ml G418 for two weeks. […] The compound treatments were stopped by adding trichloroacetic acid (Sigma-Aldrich) to a final concentration at 0.2%. […] The absorbance at 490 nm was measured on Envision plate reader. […]
Structures can show the parent of a compound that is named as a salt.
Known pIC50 of a selection of compounds
pIC50 field: float, defined as -log10 of concentration (mol/L).

Below: 5 compounds and their reported pIC50.
{"compound": "CCCN(Cc1ccc(F)cc1)c1cc(NC(=O)Cc2ccc(C)cc2F)cc(-c2ccccc2-c2nnn[nH]2)n1 [Example 75, TFA]", "pIC50": 7.55}
{"compound": "Cc1ccnc(Nc2cc(-c3ccccc3-c3nnn[nH]3)nc(N(Cc3ccccc3)CC(C)C)c2)n1", "pIC50": 7.13}
{"compound": "CC(C)CN(Cc1ccccc1)c1cc(Nc2nccc(N3CCOCC3)n2)cc(-c2ccccc2-c2nnn[nH]2)n1 [Example 53, TFA]", "pIC50": 8.31}
{"compound": "CCN(CCC(F)(F)F)c1cc(NC(=O)Cc2ccc(C)cc2)cc(-c2ccccc2-c2nnn[nH]2)n1", "pIC50": 6.29}
{"compound": "CC(C)CN(Cc1ccccc1)c1cc(Nc2ccc(F)c(Cl)c2)cc(-c2ccccc2-c2nnn[nH]2)n1", "pIC50": 7.95}

Request: Fill in the blank: the reported pIC50 of CCCN(Cc1ccccc1)c1cc(NC(=O)Nc2ccccc2C(F)(F)F)cc(-c2ccccc2-c2nnn[nH]2)n1 is ____.
Result: 6.69

Request: Now try CCCN(Cc1ccccc1)c1cc(NC(=O)Nc2ccc(C)cc2)cc(-c2ccccc2C(=O)NS(=O)(=O)N2CCN(C)CC2)n1 .
Result: 5.61

Request: CCCN(Cc1ccccc1)c1cc(Nc2nnc(C)s2)cc(-c2ccccc2-c2nnn[nH]2)n1 ?
Result: 6.08

Request: Lookup Cc1ccc(CC(=O)Nc2cc(-c3ccccc3-c3nnn[nH]3)nc(N(Cc3ccccc3)CC(C)C)n2)c(F)c1
Result: 7.74

Request: CCN(Cc1ccccc1)c1cc(NC(=O)Nc2ccc(C(F)(F)F)cc2)cc(-c2ccccc2-c2nnn[nH]2)n1 , same question.
Result: 6.83

Request: Then this compound: Cc1cc(Nc2cc(-c3ccccc3-c3nnn[nH]3)nc(N(Cc3ccccc3)CC(C)C)c2)ccc1C#N
Result: 7.98

Request: Check CCCN(Cc1ccccc1)c1cc(NC(=O)Cc2ccc(C#N)cc2)cc(-c2ccccc2-c2nn[nH]n2)n1 [Example 227] too.
Result: 5.47

Request: Can you handle CCc1cnc(Nc2cc(-c3ccccc3-c3nnn[nH]3)nc(N(Cc3ccccc3)CC(C)C)c2)nc1 next?
Result: 7.58

Request: CCCN(Cc1ccccc1)c1cc(NC(=O)Cc2csc(C)n2)cc(-c2ccccc2-c2nn[nH]n2)n1 ?
Result: 6.04

Request: CC(C)c1ccc(CC(=O)Nc2cc(-c3ccccc3-c3nnn[nH]3)nc(N3CCc4ccccc4C3)n2)cc1
Result: 5.86
